# System: human recombinant dopamine D4.2 receptor (Homo sapiens, UniProt P21917, DEL265-296)
# Construct: expressed in transfected cells
# Sequence (P21917 with tags, fused parts or gaps DEL265-296): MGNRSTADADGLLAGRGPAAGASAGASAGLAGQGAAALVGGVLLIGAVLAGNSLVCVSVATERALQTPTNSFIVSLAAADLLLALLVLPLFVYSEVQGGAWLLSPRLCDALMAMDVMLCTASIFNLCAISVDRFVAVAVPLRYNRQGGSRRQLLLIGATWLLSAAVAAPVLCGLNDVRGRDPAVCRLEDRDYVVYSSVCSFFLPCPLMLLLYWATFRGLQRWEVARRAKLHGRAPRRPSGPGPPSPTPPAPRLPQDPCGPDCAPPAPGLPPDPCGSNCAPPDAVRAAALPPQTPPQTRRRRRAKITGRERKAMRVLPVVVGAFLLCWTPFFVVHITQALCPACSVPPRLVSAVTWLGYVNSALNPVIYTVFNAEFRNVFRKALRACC
# Experimental protocol: [3H]spiperone receptor binding assay, D4.2 (CHO K1 membranes)
# Condition: [3H]spiperone 0.2 nM, human D4.2, CHO K1 membranes, 60 minutes at 25° C.; read-out: D4 Ki
Endpoint: Ki (nM)

{"Structure smiles string": "O=c1ccc2ccc(CN3CCN(c4cccc(F)c4)CC3)cc2o1", "Endpoint": "Ki", "Endpoint value": 44}

(A) O=c1ccc2ccc(CN3CCN(c4ccc5ccccc5c4)CC3)cc2o1
(B) Cc1cccc(N2CCN(Cc3ccc4ccc(=O)oc4c3)CC2)c1C
[ask] Compare Ki: is it lower for A or for B ? Selection: enter the item's label.
[reply] B
(B: 19 nM, A: 49.7 nM)
